Molecular target: T1, human GIP receptor (human, UniProt P48546 22-466)
T1 sequence (looked up): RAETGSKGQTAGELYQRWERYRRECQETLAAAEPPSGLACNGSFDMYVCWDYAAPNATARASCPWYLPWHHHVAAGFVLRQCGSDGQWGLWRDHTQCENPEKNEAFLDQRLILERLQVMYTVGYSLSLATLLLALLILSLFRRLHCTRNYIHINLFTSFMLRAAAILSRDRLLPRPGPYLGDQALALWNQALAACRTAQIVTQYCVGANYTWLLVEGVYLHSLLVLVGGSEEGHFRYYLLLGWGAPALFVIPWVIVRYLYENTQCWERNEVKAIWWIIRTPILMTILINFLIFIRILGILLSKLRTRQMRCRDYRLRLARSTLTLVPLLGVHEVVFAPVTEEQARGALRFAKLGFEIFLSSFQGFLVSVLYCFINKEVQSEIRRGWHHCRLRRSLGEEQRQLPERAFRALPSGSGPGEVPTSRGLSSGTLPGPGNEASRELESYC
Experiment: cell-based or functional assay
Ends that are not written are not given here. * marks the point of attachment. Palmitoyl = CCCCCCCCCCCCCCCC(=O)*
Quantity Kind: logEC50 (cAMP)

binder="HADGTFISDYSTIKDNLAARDFINWLIQTKITK [GIP-GLP-2 co-agonist 25]" quantity_kind="logEC50 (cAMP)" measured_result=-9.36
binder="HADGTFSSDYSTILDNLAARDFINWLIQTKITD (not fully specified (residue 1, N-terminus); also: C16 acyl group on His 1 (attachment site not given here)) [GIP-GLP-2 co-agonist 22]" quantity_kind="logEC50 (cAMP)" measured_result=-9.39
binder="HADGTFISDYSTILDNLAARDFINWLIQTKITK (not fully specified (residue 1, N-terminus); also: C16 acyl group on His 1 (attachment site not given here)) [GIP-GLP-2 co-agonist 29]" quantity_kind="logEC50 (cAMP)" measured_result=-8.74
binder="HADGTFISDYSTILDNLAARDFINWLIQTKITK (C12 acyl group on Lys 33 (K(C12/33), 'with C12 pos 33')) [GIP-GLP-2 co-agonist 32]" quantity_kind="logEC50 (cAMP)" measured_result=-9.81
binder="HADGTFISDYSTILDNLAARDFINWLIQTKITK (C16 acyl group on Lys 33 (K(c16/33), 'with C16 pos 33')) [GIP-GLP-2 co-agonist 33]" quantity_kind="logEC50 (cAMP)" measured_result=-9.5
binder="HADGTFISDYSKILDNLAARDFINWLIQTKITK [GIP-GLP-2 co-agonist 24]" quantity_kind="logEC50 (cAMP)" measured_result=-9.82
binder="HADGTFSSDYSTILDNLAARDFINWLIQTK(Palmitoyl)ITD [GIP-GLP-2 co-agonist 23]" quantity_kind="logEC50 (cAMP)" measured_result=-9.12
binder="HADGSFSDEMNTILDNLAARDFINWLIQTKITD (ligand) [human native GLP-2]" quantity_kind="logEC50 (cAMP)" measured_result=-7.25
binder="HADGTFISDYSTILDNLAARDFINWLIQTK(Palmitoyl)ITK [GIP-GLP-2 co-agonist 31]" quantity_kind="logEC50 (cAMP)" measured_result=-8.77
binder="HADGTFISDYSTILDNLAARDFINWLIQTKGK(Palmitoyl)K [GIP-GLP-2 co-agonist 36]" quantity_kind="logEC50 (cAMP)" measured_result=-9.1
binder="HADGTFISDYSTILDNLAARDFINWLIQTKGKKNDWKHNITQ [GIP-GLP-2 co-agonist 34]" quantity_kind="logEC50 (cAMP)" measured_result=-10
